assay: Permeability of the compound by PAMPA; type: ADME; details: read-out: permeability
outcome_measure: Papp

CCc1nc2ccn(Cc3ccccc3C)c(=O)c2n1[C@H]1CCc2cc(-c3ccccc3-c3nnn[nH]3)ccc21
3.6 ×10⁻⁶ cm/s
CCc1nc2ccn(Cc3ccccc3C#N)c(=O)c2n1[C@H]1CCc2cc(-c3ccccc3-c3nnn[nH]3)ccc21
10.7 ×10⁻⁶ cm/s
CCc1nc2c(C)cn(Cc3ccccc3C)c(=O)c2n1[C@H]1CCc2cc(-c3ccccc3-c3nnn[nH]3)ccc21
7 ×10⁻⁶ cm/s

Okay, now this compound:
Exercise: # get_value(readout='Papp', item= CCc1nc2c(C)cn(Cc3ccccc3C#N)c(=O)c2n1[C@H]1CCc2cc(-c3ccccc3-c3nnn[nH]3)ccc21 )
Solution: 19 ×10⁻⁶ cm/s

---

Target: Peroxisome proliferator-activated receptor alpha (Homo sapiens, UniProt Q07869)
Sequence (Q07869 whole entry): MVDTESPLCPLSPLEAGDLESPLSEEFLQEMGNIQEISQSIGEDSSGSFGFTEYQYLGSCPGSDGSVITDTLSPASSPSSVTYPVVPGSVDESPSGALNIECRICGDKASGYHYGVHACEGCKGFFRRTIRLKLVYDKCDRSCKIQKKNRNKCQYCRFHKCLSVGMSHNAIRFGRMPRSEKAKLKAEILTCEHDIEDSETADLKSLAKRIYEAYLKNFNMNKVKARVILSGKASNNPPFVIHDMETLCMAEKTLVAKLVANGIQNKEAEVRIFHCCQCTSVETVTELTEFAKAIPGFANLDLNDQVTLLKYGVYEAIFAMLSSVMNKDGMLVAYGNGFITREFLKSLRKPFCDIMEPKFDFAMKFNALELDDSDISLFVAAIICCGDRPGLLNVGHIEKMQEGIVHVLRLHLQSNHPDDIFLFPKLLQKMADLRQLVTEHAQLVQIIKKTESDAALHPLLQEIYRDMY
Test: Agonist activity at PPARalpha (unknown origin)
outcome_measure: EC50

Exercise: # get_value(readout='EC50', item= CCc1nc2ccn(Cc3ccccc3)c(=O)c2n1[C@H]1CCc2cc(-c3ccccc3-c3nnn[nH]3)ccc21 )
Solution: > 50 µM

---

The entries below are paired with their reported pEC50.
Target: Peroxisome proliferator-activated receptor gamma (Homo sapiens, UniProt P37231)
Sequence (P37231 whole entry): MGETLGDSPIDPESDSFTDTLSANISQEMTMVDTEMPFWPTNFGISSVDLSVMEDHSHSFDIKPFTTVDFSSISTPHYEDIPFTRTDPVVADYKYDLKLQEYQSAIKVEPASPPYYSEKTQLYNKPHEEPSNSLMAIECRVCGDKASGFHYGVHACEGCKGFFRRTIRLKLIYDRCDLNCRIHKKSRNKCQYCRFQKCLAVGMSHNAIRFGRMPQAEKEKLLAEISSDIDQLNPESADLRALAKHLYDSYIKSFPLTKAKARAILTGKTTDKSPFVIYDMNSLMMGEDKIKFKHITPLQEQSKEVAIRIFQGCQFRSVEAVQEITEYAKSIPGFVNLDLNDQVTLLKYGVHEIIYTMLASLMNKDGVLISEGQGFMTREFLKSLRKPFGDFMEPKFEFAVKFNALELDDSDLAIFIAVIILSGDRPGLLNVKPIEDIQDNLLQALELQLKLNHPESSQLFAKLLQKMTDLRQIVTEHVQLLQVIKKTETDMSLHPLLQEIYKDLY
Test: Partial agonist activity at human PPARgamma-LBD/Gal4 DNA binding domain by transactivation assay
By convention, pEC50 is the negative base-10 log of a molar concentration.

Answered examples (3):
CCc1nc2ccn(CC(=O)OCc3ccccc3)c(=O)c2n1[C@H]1CCc2cc(-c3ccccc3-c3nnn[nH]3)ccc21
5.90
CCc1nc2ccn(Cc3cccc(C(F)(F)F)c3)c(=O)c2n1[C@H]1CCc2cc(-c3ccccc3-c3nnn[nH]3)ccc21
6.35
CCc1nc2ccn(Cc3cccnc3)c(=O)c2n1[C@H]1CCc2cc(-c3ccccc3-c3nnn[nH]3)ccc21
5.44

Exercise: # get_value(readout='pEC50', item= CCc1nc2c(C)cn(Cc3ccccc3C#N)c(=O)c2n1[C@H]1CCc2cc(-c3ccccc3-c3nnn[nH]3)ccc21 )
Solution: 6.53

Exercise: What do we get for CCc1nc2ccn(Cc3c(C)noc3C)c(=O)c2n1[C@H]1CCc2cc(-c3ccccc3-c3nnn[nH]3)ccc21 ?
Solution: 5.35

Exercise: What do we get for CCc1nc2ccn(CC(C)C)c(=O)c2n1[C@H]1CCc2cc(-c3ccccc3-c3nnn[nH]3)ccc21 ?
Solution: 5.77
